ASSAY: Intrinsic clearance in human liver microsomes at 1 uM up to 60 mins
Type: ADME, Microsome
CONDITION_NOTES: read-out: CLH
Assign microsomal CLint at 1 µM to each entry below.

Give me microsomal CLint at 1 µM for each of these molecules, listed below.
1. CNC(=O)c1ccc(-c2cc(-c3ccc(S(C)(=O)=O)cc3)cnc2N)cc1
2. CS(=O)(=O)c1ccc(-c2cnc(N)c(-c3ccc(F)nc3)c2)cc1
3. CS(=O)(=O)c1ccc(-c2cnc(N)c(-c3ccc(C(F)(F)F)nc3)c2)cc1
4. CS(=O)(=O)c1ccc(-c2cnc(N)c(-c3ccc(CO)nc3)c2)cc1
5. CS(=O)(=O)c1ccc(-c2cnc(N)c(-c3cccc(C(F)(F)F)c3)c2)cc1

*A*
["< 5 µL/min/mg", "< 7 µL/min/mg", "< 1.4 µL/min/mg", "< 7 µL/min/mg", "< 7 µL/min/mg"]
